assay: Terminal half life in rat at 2 mg/kg, iv; format: ADME, organism-based; design: dose 2 mg/kg, route intravenous; details: in vivo
measurement.label: half-life
Returns: string containing the number followed by the unit.

If you can, please state the reported half-life value of CCCCn1nc(-c2nc3ccccc3s2)nc2c(=O)n(C)c(=O)nc1-2 .
1.29 h

====

assay: Oral bioavailability in rat at 10 mg/kg; assay type: ADME, organism-based; details: in vivo
measurement.label: bioavailability
Respond with a number, then the unit of measure.

Which measured bioavailability value corresponds to CCn1nc(-c2cccc(Cl)c2)nc2c(=O)n(C)c(=O)nc1-2 ?
11%

====

assay: Clearance in rat at 2.5 mg/kg, iv; assay type: ADME, organism-based; parameters: dose 2.5 mg/kg, route intravenous; settings: in vivo
measurement.label: clearance (mL/min/kg)
Unit mL/min/kg implied. Number only.

Look at this compound and give its reported clearance. CCn1nc(-c2cccc(Cl)c2)nc2c(=O)n(C)c(=O)nc1-2
148

====

experiment: Terminal half life in rat at 20 mg/kg, po; type: ADME, organism-based; parameters: dose 20 mg/kg, route oral; details: in vivo
measurement.label: half-life (h)
Number in h, nothing else.

Find the recorded half-life belonging to CCCCn1nc(-c2nc3ccccc3s2)nc2c(=O)n(C)c(=O)nc1-2 and report it.
2.36

====

Provide the recorded remaining at 0.75 h, 3 µM for the entries that follow.
experiment: Metabolic stability in rat liver microsomes assessed as compound recovery at 3 uM after 45 mins by LC-MS/MS analysis in absence of NADPH; assay type: ADME, Microsome; conditions: read-out: Activity
Kindly answer with a numeric value in %, unit omitted.

// lookup remaining at 0.75 h, 3 µM for O=c1nc2n(CCC3CC3)nc(-c3ccc4c(c3)OC(F)(F)O4)nc-2c(=O)n1CC1CC1
68

I would be grateful if you could share the reported remaining at 0.75 h, 3 µM for O=c1nc2n(CCCC(F)(F)F)nc(-c3cccc(C(F)(F)F)c3)nc-2c(=O)n1CC1CC1 .
26

// query remaining at 0.75 h, 3 µM value for entry Cn1c(=O)nc2n(CCC3CC3)nc(-c3nc4ccccc4s3)nc-2c1=O
44

Recorded remaining at 0.75 h, 3 µM of O=c1nc2n(CCCC(F)(F)F)nc(-c3ccc4c(c3)OC(F)(F)O4)nc-2c(=O)n1CC1CC1 , please.
41

Recorded remaining at 0.75 h, 3 µM of CCCCn1nc(-c2nc3ccccc3s2)nc2c(=O)n(C)c(=O)nc1-2 , please.
50

Given the entry COCCCn1nc(-c2cccc(OC(F)(F)F)c2)nc2c(=O)n(C)c(=O)nc1-2 , report its measured remaining at 0.75 h, 3 µM.
71

====

test: Oral bioavailability in rat at 20 mg/kg; assay type: ADME, organism-based; conditions: in vivo
measurement.label: bioavailability
Answer by giving the amount and then stating its unit.

Tell me the measured bioavailability of CCCCn1nc(-c2nc3ccccc3s2)nc2c(=O)n(C)c(=O)nc1-2 , please.
2%

====

test: Half life in rat liver microsomes at 3 uM by LC-MS/MS analysis; type: ADME, Microsome
Please respond with rule met when measured half-life at 3 µM is strictly beneath 50 min, and with rule not met in all other cases.

Determine whether this compound shows half-life at 3 µM lower than 50 min (ties excluded): Cn1c(=O)nc2n(CCC3CC3)nc(-c3nc4ccccc4s3)nc-2c1=O
rule met

Given the entry O=c1nc2n(CCCC(F)(F)F)nc(-c3cccc(C(F)(F)F)c3)nc-2c(=O)n1CC1CC1 , would its reported half-life at 3 µM be below 50 min?
rule met

hey, is half-life at 3 µM for COCCCn1nc(-c2cccc(OC(F)(F)F)c2)nc2c(=O)n(C)c(=O)nc1-2 lower than 50 min or not?
rule not met

In the record for Cn1c(=O)nc2n(CCC3CC3)nc(-c3ccc4c(c3)OC(F)(F)O4)nc-2c1=O , is half-life at 3 µM less than 50 min?
rule not met

Strictly below 50 min: is that where half-life at 3 µM of Cn1c(=O)nc2n(CCC3CC3)nc(C34CC5CC(CC(C5)C3)C4)nc-2c1=O sits?
rule met

Given the entry O=c1nc2n(CCC3CC3)nc(-c3ccc4c(c3)OC(F)(F)O4)nc-2c(=O)n1CC1CC1 , would its reported half-life at 3 µM be below 50 min?
rule not met

Below 50 min on half-life at 3 µM? Entry O=c1nc2n(CCCC(F)(F)F)nc(-c3ccc4c(c3)OC(F)(F)O4)nc-2c(=O)n1CC1CC1
rule met

hey, is half-life at 3 µM for CCn1c(=O)nc2n(CCC(C)C)nc(-c3nc4ccccc4s3)nc-2c1=O lower than 50 min or not?
rule met

Record CCn1nc(-c2cccc(Cl)c2)nc2c(=O)n(C)c(=O)nc1-2 : is its half-life at 3 µM strictly below 50 min?
rule not met

Quick check: does Cn1nc(-c2ccc(C(F)(F)F)cc2)nc2c(=O)n(C)c(=O)nc1-2 have half-life at 3 µM under 50 min?
rule not met

====

assay: Apparent volume of distribution in rat at 2 mg/kg, iv; assay type: ADME, organism-based; design: dose 2 mg/kg, route intravenous; conditions: in vivo, read-out: Vz
measurement.label: Vd

Which measured Vd value corresponds to CCCCn1nc(-c2nc3ccccc3s2)nc2c(=O)n(C)c(=O)nc1-2 ?
9.26 L/kg

====

system: SK-N-SH; experiment: Cytoprotection against rotenone-induced toxicity in human SK-N-SH cells at 0.019 to 10 uM after 48 hrs by MTS assay relative to control; assay type: functional
Kindly return Condition met if reported Activity is no lower than 50%; return Condition not met if it is lower.

Could you tell me if the measured Activity of Cn1c(=O)nc2n(CCC3CCCCC3)nc(-c3cccc(OC(F)(F)F)c3)nc-2c1=O reaches 50% or more?
Condition not met

Say whether COCCCn1nc(-c2cccc(OC(F)(F)F)c2)nc2c(=O)n(C)c(=O)nc1-2 shows Activity of 50% or more.
Condition met

Is it the case that Cn1c(=O)nc2n(CCC3CCCCC3)nc(-c3cccc(F)c3)nc-2c1=O has Activity reaching or exceeding 50%?
Condition met

For this compound, is measured Activity 50% or higher? Cn1c(=O)nc2n(CCC3CC3)nc(-c3ccc4c(c3)OC(F)(F)O4)nc-2c1=O
Condition met

For this compound, is measured Activity 50% or higher? O=c1nc2n(CCCC(F)(F)F)nc(-c3cccc(C(F)(F)F)c3)nc-2c(=O)n1CC1CC1
Condition not met

Given the entry O=c1nc2n(CCC3CC3)nc(-c3ccc(Cl)c(Cl)c3)nc-2c(=O)n1CC1CC1 , answer whether its Activity meets or surpasses 50%.
Condition not met

Decide: is the reported value of Activity for CCCCn1nc(-c2nc3ccccc3s2)nc2c(=O)n(C)c(=O)nc1-2 equal to or greater than 50%?
Condition met

Reported Activity reaches at least 50% for CCCCn1nc(-c2nc3ccccc3s2)nc2c(=O)n(CCC)c(=O)nc1-2 ?
Condition not met

State whether the measured Activity reaches 50%, counting equality as reaching it, for CCCCn1nc(-c2nc3ccccc3s2)nc2c(=O)n(CC)c(=O)nc1-2
Condition met

Determine whether measured Activity meets or exceeds 50% for CCn1nc(-c2ccc(Cl)cc2)nc2c(=O)n(C)c(=O)nc1-2
Condition met

Does Activity meet or surpass 50% for Cn1c(=O)nc2n(CCCC(F)(F)F)nc(-c3cccc(OC(F)(F)F)c3)nc-2c1=O ?
Condition not met

Item Cn1c(=O)nc2n(CCC3CC3)nc(-c3cccc(Cl)c3)nc-2c1=O with Activity of 50% or above?
Condition not met

Entry CCCCn1nc(-c2nc3ccccc3s2)nc2c(=O)n(CCCC)c(=O)nc1-2 : is its Activity no less than 50%?
Condition not met

# check: Activity of Cn1c(=O)nc2n(CCC3CC3)nc(-c3nc4ccccc4s3)nc-2c1=O is greater than or equal to 50%
Condition not met

Textbook exercise: given the entry Cn1c(=O)nc2n(CC3CCC(F)(F)CC3)nc(-c3cccc(F)c3)nc-2c1=O , state whether its Activity is greater than or equal to 50%.
Condition not met

Assess whether reported Activity for CCn1nc(-c2cccc(Cl)c2)nc2c(=O)n(C)c(=O)nc1-2 sits at 50% or higher.
Condition not met

Assess whether reported Activity for Cn1nc(-c2ccc(Cl)c(Cl)c2)nc2c(=O)n(C)c(=O)nc1-2 sits at 50% or higher.
Condition not met

In plain terms: is recorded Activity at least 50% for O=c1nc2n(CCC3CC3)nc(-c3cccc(OC(F)(F)F)c3)nc-2c(=O)n1CC1CC1 ?
Condition met

Please indicate if the recorded Activity for CCCCn1nc(-c2ccc(OC(F)(F)F)cc2)nc2c(=O)n(C)c(=O)nc1-2 meets or exceeds 50%.
Condition met

Is the recorded value of Activity equal to or greater than 50% for this compound? O=c1nc2n(CCC3CC3)nc(-c3ccc(C(F)(F)F)cc3)nc-2c(=O)n1CC1CC1
Condition met

hey, is Activity for this one >= 50%? CCn1c(=O)nc2n(CCC(C)C)nc(-c3nc4ccccc4s3)nc-2c1=O
Condition not met
